# Target: human CD1a expressed on cells (human, UniProt P06126 17-327)
# Sequence (P06126 17-327): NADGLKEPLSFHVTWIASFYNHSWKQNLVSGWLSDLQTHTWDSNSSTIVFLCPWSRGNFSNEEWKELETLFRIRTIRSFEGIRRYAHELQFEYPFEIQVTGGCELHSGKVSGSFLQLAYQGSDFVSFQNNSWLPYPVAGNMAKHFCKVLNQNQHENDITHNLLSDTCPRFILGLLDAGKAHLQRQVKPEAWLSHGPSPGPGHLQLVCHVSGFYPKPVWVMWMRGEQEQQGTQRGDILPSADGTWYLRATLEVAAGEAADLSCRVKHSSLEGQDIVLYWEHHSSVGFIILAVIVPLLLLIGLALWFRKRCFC
# Protocol Details: cell-based or functional assay
Measured Endpoint: Inhibition of CD69 expression, IC50 (nM)
The reply should be a number in nM, with the unit left off.

Inquiry: I'd like to know its Inhibition of CD69 expression, IC50. The binder in question is Ab623 (antibody, human IgG1, kappa, V domains shown, Optimized variant of Ab138; human IgG1 effector null / kappa; HC with or without terminal lysine) VH: EVQLVESGGGLVQPGGSLRLSCAASGFTFEDHYMHWVRQAPGKGLEWVAHTRDKAGGYTTESNPAVKGRFTISRDNAKNSLYLQMNSLRAEDTAVYYCARETTRIPTGWFAYWGQGTLVTVSS VL: DIQMTQSPSSLSASVGDRVTITCLASEDIYFDLAWYQQKPGKAPKLLIYGGDRLKEGVPSRFSGSGSGTDYTLTISSLQPEDFATYYCQQSYSYPYTFGQGTKLEIKR
Reply text: 0.35

Could you now look at the following binder, please?
Inquiry: I'd like to know its Inhibition of CD69 expression, IC50. The binder in question is Ab689 (antibody, human IgG1, kappa, V domains shown, Optimized variant of Ab138; human IgG1 effector null / kappa; HC with or without terminal lysine) VH: EVQLVESGGGLVQPGGSLRLSCAASGFTFTDHYMHWVRQAPGKGLEWVAHTRDKAGGYTTESNPAVKGRFTISRDNAKNSLYLQMNSLRAEDTAVYYCARETTRIPTGWFAYWGQGTLVTVSS VL: DIQMTQSPSSLSASVGDRVTITCLASEDIYFDLAWYQQKPGKAPKLLIYGGDRLQEGVPSRFSGSGSGTDYTLTISSLQPEDFATYYCQQSYSYPYTFGQGTKLEIKR
Reply text: 0.41
